- test method notes: Plasma clearance in dogs administered perorally (5 mg/kg) and intravenously (2 mg/kg)
- Type: ADME, organism-based, Canis lupus familiaris
- measurement conditions: dog, iv, read-out: Clp
// reported clearance for each item listed
observed property: clearance

structure_smiles=CC(C)(C)NC(=O)[C@@H]1CN(C(C)(C)c2cc3cnccc3o2)CCN1C[C@@H](O)C[C@@H](Cc1ccccc1)C(=O)N[C@H]1c2ccccc2OC[C@H]1O observed_property=clearance assay_result="14.2 mL/min/kg"
structure_smiles=CC(C)(c1cc2cnccc2o1)N1CCN(C[C@@H](O)C[C@@H](Cc2ccccc2)C(=O)N[C@H]2c3ccccc3OC[C@H]2O)[C@H](C(=O)NCC(F)(F)F)C1 observed_property=clearance assay_result="4.01 mL/min/kg"

----------
This document collects IC50 values reported for Cytochrome P450 3A4 (Homo sapiens).
observed property: IC50

structure_smiles=CC(C)(C)NC(=O)[C@@H]1CN(C(C)(C)c2cc3cnccc3o2)CCN1C[C@@H](O)C[C@@H](Cc1ccccc1)C(=O)N[C@H]1c2ccccc2OC[C@H]1O observed_property=IC50 assay_result="310 nM"
structure_smiles=CC(C)(c1cc2cnccc2o1)N1CCN(C[C@@H](O)C[C@@H](Cc2ccccc2)C(=O)N[C@H]2c3ccccc3OC[C@H]2O)[C@H](C(=O)NCC(F)(F)F)C1 observed_property=IC50 assay_result="30 nM"

----------
- test method notes: Maximum concentration in dogs administered perorally (5 mg/kg) and intravenously (2 mg/kg)
- Assay type: ADME, organism-based, Canis lupus familiaris
- measurement conditions: dog, in vivo, po
Reported values of Cmax for individual entries
observed property: Cmax (µM)

structure_smiles=CC(C)(c1cc2cnccc2o1)N1CCN(C[C@@H](O)C[C@@H](Cc2ccccc2)C(=O)N[C@H]2c3ccccc3OC[C@H]2O)[C@H](C(=O)NCC(F)(F)F)C1 assay_result=17
structure_smiles=CC(C)(C)NC(=O)[C@@H]1CN(C(C)(C)c2cc3cnccc3o2)CCN1C[C@@H](O)C[C@@H](Cc1ccccc1)C(=O)N[C@H]1c2ccccc2OC[C@H]1O assay_result=8.8

----------
pIC50: −log10 of the molar value.
Cytochrome P450 2D6 (Homo sapiens, UniProt P10635): recorded pIC50 for assorted compounds
Sequence (P10635 whole entry): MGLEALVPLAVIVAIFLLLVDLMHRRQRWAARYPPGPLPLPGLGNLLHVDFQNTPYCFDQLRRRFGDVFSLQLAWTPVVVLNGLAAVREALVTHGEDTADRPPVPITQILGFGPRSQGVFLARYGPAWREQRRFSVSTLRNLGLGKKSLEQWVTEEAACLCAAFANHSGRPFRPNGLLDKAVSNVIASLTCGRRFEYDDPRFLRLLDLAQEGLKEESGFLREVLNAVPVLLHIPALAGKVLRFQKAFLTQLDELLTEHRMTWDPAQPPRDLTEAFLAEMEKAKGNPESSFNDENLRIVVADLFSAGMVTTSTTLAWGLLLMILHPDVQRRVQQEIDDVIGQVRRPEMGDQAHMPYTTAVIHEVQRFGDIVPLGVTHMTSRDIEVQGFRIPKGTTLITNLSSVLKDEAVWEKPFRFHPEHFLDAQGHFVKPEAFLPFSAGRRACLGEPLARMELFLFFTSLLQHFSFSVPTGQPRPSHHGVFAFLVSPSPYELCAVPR
observed property: pIC50

structure_smiles=CC(C)(C)NC(=O)[C@@H]1CN(C(C)(C)c2cc3cnccc3o2)CCN1C[C@@H](O)C[C@@H](Cc1ccccc1)C(=O)N[C@H]1c2ccccc2OC[C@H]1O assay_result=5.61
structure_smiles=CC(C)(c1cc2cnccc2o1)N1CCN(C[C@@H](O)C[C@@H](Cc2ccccc2)C(=O)N[C@H]2c3ccccc3OC[C@H]2O)[C@H](C(=O)NCC(F)(F)F)C1 assay_result=6.28

----------
- tested target: UniProt:Q72874
- test method notes: Inhibitory concentration against wild-type HIV-1 protease
pIC50: −log10 of the molar value.
observed property: pIC50

structure_smiles=CC(C)(c1cc2cnccc2o1)N1CCN(C[C@@H](O)C[C@@H](Cc2ccccc2)C(=O)N[C@H]2c3ccccc3OC[C@H]2O)[C@H](C(=O)NCC(F)(F)F)C1 observed_property=pIC50 assay_result=10.15
structure_smiles=CC(C)(c1cc2cnccc2o1)N1CCN(C[C@@H](O)C[C@@H](Cc2ccccc2)C(=O)N[C@H]2c3ccccc3OC[C@H]2O)[C@H](C(=O)NCC(F)(F)C(F)(F)F)C1 observed_property=pIC50 assay_result=9.85
structure_smiles=CC(C)(c1cc2cnccc2o1)N1CCN(C[C@@H](O)C[C@@H](Cc2ccccc2)C(=O)N[C@H]2c3ccccc3OC[C@H]2O)[C@H](C(=O)NC2CCCC2)C1 observed_property=pIC50 assay_result=9.43
structure_smiles=CC(C)CNC(=O)[C@@H]1CN(C(C)(C)c2cc3cnccc3o2)CCN1C[C@@H](O)C[C@@H](Cc1ccccc1)C(=O)N[C@H]1c2ccccc2OC[C@H]1O observed_property=pIC50 assay_result=9.40
structure_smiles=CC(C)(C)NC(=O)[C@@H]1CN(C(C)(C)c2cc3cnccc3o2)CCN1C[C@@H](O)C[C@@H](Cc1ccccc1)C(=O)N[C@H]1c2ccccc2OC[C@H]1O observed_property=pIC50 assay_result=10.10
structure_smiles=CC(C)(c1cc2cnccc2o1)N1CCN(C[C@@H](O)C[C@@H](Cc2ccccc2)C(=O)N[C@H]2c3ccccc3OC[C@H]2O)[C@H](C(=O)NC2CC2)C1 observed_property=pIC50 assay_result=9.22

// provenance: ChEMBL document CHEMBL1134901
